target: human recombinant adrenergic α2B receptor (Homo sapiens, UniProt P18089); construct: expressed in transfected cells; host or cells: CHO-K1 cells; test: Adrenergic α2B radioligand binding ([3H]Rauwolscine); conditions: compound at 1 μM; CHO-K1 cells; read-out: Adrenergic (1 μM) α2B, percent inhibition of specific binding
Sequence (P18089 whole entry): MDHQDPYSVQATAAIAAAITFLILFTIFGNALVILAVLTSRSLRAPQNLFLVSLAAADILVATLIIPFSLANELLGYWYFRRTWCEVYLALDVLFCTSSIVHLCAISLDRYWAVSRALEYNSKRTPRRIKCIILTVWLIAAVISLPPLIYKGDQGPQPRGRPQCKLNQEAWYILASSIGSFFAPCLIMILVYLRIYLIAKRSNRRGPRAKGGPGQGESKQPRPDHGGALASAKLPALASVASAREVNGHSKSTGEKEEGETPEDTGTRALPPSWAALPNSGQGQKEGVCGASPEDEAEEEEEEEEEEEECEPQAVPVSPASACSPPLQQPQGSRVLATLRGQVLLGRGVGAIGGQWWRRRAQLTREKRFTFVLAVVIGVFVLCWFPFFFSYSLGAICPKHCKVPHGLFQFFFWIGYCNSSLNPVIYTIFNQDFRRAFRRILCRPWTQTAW
READOUT LABEL: inhibition at 1 µM
A complete answer gives the number followed by the unit.

Incoming: For Cc1ccc2c(c1)c1c(n2CCNC(=O)C(C)C)CCN(C)C1 [Compound 61] , write its inhibition at 1 µM.
Outgoing: 70%

Incoming: Give the measured inhibition at 1 µM for Cc1ccc2c(c1)c1c(n2CCNC(=O)c2ccc(F)cc2)CCN(C)C1 [Compound 66]
Outgoing: 107%

Incoming: Please report the measured inhibition at 1 µM for CCOC(=O)CCCn1c2c(c3cc(C)ccc31)CN(C)CC2 [Compound 5]
Outgoing: 98%

Incoming: Indicate the recorded inhibition at 1 µM value for this molecule: Cc1ccc2c(c1)c1c(n2CCC(=O)NC(C)C)CCN(C)C1 [Compound 53]
Outgoing: 86%

Incoming: Return the recorded inhibition at 1 µM value; entry: C#CCn1c2c(c3cc(C)ccc31)CN(C)CC2 [CD73]
Outgoing: 101%

Value source: patent US9115137B2
